Recorded values, source paper PMC6627331.

Assay: JC2 stability (degradation test) in Mueller Hinton broth by HPLC
Format: physicochemical
Settings: 37 °C, read-out: half-life in Mueller Hinton media (MH t1/2) (converted)
MEASURED ATTRIBUTE: half-life at 100 µM

Lookup: Fill blank: measured half-life at 100 µM of the molecule CC1CCCCN1C(=O)Nc1cc(Cl)cc(Cl)c1 (stereo not shown) [JC2] is ____.
Found: ~2 h

* * *

System: norA mRNA in S. aureus UAMS-1 cells
Assay: Cellular norA mRNA turnover (qRT-PCR after rifampin arrest)
Type: cell-based, Staphylococcus aureus
Conditions: 0.5× MIC for 30 min; 5 min post-transcriptional arrest; mock 99%
MEASURED ATTRIBUTE: norA mRNA degradation

Lookup: Notebook: pull reported norA mRNA degradation for norA mRNA in S. aureus UAMS-1 cells, entry CC1CCCCN1C(=O)Nc1cc(Cl)cc(Cl)c1 (stereo not shown)
Found: 27%
